Biological target: recombinant Factor XIII (rFXIIIa) (Homo sapiens, UniProt P00488)
Construct: made in house
Sequence (P00488 39-732 limits assumed): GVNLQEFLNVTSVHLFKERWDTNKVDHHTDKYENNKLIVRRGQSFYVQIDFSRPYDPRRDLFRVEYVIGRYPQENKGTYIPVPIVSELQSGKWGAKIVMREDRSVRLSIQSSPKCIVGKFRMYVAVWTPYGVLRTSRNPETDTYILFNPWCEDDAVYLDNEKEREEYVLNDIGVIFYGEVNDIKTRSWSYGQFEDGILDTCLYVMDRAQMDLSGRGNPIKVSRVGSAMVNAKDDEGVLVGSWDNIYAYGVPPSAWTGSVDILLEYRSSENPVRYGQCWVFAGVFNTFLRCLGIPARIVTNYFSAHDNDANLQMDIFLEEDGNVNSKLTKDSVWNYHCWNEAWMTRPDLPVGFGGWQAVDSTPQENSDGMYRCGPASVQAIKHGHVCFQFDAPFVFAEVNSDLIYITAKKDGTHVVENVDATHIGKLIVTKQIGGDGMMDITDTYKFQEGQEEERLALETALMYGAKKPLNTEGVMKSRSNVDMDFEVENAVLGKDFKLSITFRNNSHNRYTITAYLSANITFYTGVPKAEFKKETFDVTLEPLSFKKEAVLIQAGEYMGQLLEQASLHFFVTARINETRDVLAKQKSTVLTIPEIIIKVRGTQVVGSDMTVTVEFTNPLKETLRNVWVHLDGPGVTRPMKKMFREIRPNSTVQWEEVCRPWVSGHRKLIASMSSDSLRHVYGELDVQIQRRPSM
Experiment: Factor XIII cross-linking assay of test polypeptide substrates (HPLC area % vs time)
Type: biochemical
Details: share of hydrolysis (deamidation) relative to hydrolysis plus crosslinking; same reaction conditions
No end group written: not given here.
Items are presented alongside their recorded Hydrolysis %.
Be sure to follow the number with its unit.

Here are 5 sequences together with their reported answers.
> print(dat)
                        biopolymer.sequence  value
1      VGGQHHLGGAKQVPG [VGGQ-- HHLGGAKQVPG]     0%
2              GQHHLGGAKQG [GQ-- HHLGGAKQG]     0%
3  IGEGQHHLGGAKQAGD [-- IGEGQ-- HHLGGAKQAGD--]     0%
4  TIGEGQHHLGAKQAGDV [TIGEGQ-- HHL-- GAKQAGDV]    60%
5       EGQHHLGGAKQA [-- EGQ-- HHLGGAKQA--]     0%

Lab note: need Hydrolysis % with recombinant Factor XIII (rFXIIIa) (Homo sapiens, UniProt P00488) for entry VPGVGGQHHLGGAKQVPGVG [VPGVGGQ-- HHLGGAKQVPGVG] , please look it up.
0%
